Target: HIV-1 protease (Human immunodeficiency virus type 1 group M subtype B)
Construct: Purified HIV-1 protease was obtained as described above; made in house; host or cells: E. coli K12 L507/pHP10D (NRRL B-18560)
Assay: biochemical
Settings: read-out: Fluorescence Assay IC50 (converted)
Labelling: IC50 reported below 200 nM becomes 1; at or above becomes -1.

Query: Strictly below 200 nM in IC50? CC(C)(C)NC(=O)[C@@H]1C[C@@H]2CCCC[C@@H]2CN1C[C@@H](O)[C@H](Cc1ccccc1)NC(=O)c1c(Cl)ccc(O)c1Cl
Result: -1

Query: Strictly below 200 nM in IC50? Cc1ccc2ncccc2c1C(=O)N[C@@H](CSc1ccccc1)[C@H](O)CN1C[C@H]2CCCC[C@H]2C[C@H]1C(=O)NC(C)(C)C
Result: 1

Query: Strictly below 200 nM in IC50? Cc1c(C(=O)N[C@@H](Cc2ccccc2)[C@H](O)CN2C[C@H]3CCCC[C@H]3C[C@H]2C(=O)NC(C)(C)C)cc[nH]c1=O
Result: -1

Query: Strictly below 200 nM in IC50? CC(C)(C)NC(=O)[C@@H]1CN(Cc2cccnc2)CCN1C[C@@H](O)[C@H](CSc1ccccc1)NC(=O)c1cccc2ncccc12
Result: 1

Query: Strictly below 200 nM in IC50? Cc1cnccc1C(=O)N[C@@H](CSc1ccccc1)[C@H](O)CN1CCN(Cc2cccnc2)C[C@H]1C(=O)NC(C)(C)C
Result: 1

Query: Strictly below 200 nM in IC50? CC(C)(C)NC(=O)[C@@H]1C[C@@H]2CCCC[C@@H]2CN1C[C@@H](O)[C@H](Cc1ccccc1)NC(=O)c1cccc(Cl)c1Cl
Result: 1
